B1: CPEB3 Ribozyme (parent)
chain: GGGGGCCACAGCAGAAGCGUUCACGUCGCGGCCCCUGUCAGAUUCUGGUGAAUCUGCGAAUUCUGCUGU

Variants of: B1
Assay: self-cleavage, relative activity (ratio to wild type); higher = more cleavage; co-transcriptional
Classify as follows. Reported self-cleavage greater than or equal to 0.7: fulfilled. Reported self-cleavage below: not fulfilled.

> print(dat)
   variant.id  assigned.category
1    G3U C24G      not fulfilled
2   C22U G68A      not fulfilled

Textbook exercise: given the entry A23U C24A , state whether its self-cleavage is greater than or equal to 0.7. fulfilled

Is self-cleavage at least 0.7? Consider U53C U64G not fulfilled
